# System name: UniProt:P00797
# Protocol notes: In vitro inhibitory activity against purified recombinant human renin
Please note: IC50 exactly at 200 nM is Not satisfied. Only values below 200 nM get Satisfied.

COc1cccc(C(=O)OCc2ccc([C@H]3CCNC[C@@H]3OCc3ccc4ccccc4c3)cc2)c1 (racemic): Satisfied
O=C(NCCOc1ccc([C@H]2CCNC[C@@H]2OCc2ccc3ccccc3c2)cc1)c1ccccc1 (racemic): Not satisfied
O=C(OCc1ccc([C@H]2CCNC[C@@H]2OCc2ccc3ccccc3c2)cc1)c1ccccc1 (racemic): Satisfied
c1cncc(-c2noc(COc3ccc([C@H]4CCNC[C@@H]4OCc4ccc5ccccc5c4)cc3)n2)c1 (racemic): Not satisfied
O=C(CCCOc1ccc([C@H]2CCNC[C@@H]2OCc2ccc3ccccc3c2)cc1)c1ccccc1 (racemic): Not satisfied
O=C(OCCOc1ccc([C@H]2CCNC[C@@H]2OCc2ccc3ccccc3c2)cc1)c1cccnc1 (racemic): Not satisfied
c1ccc(-c2noc(COc3ccc([C@H]4CCNC[C@@H]4OCc4ccc5ccccc5c4)cc3)n2)cc1 (racemic): Satisfied

Kindly consider the entry below.
IC50 under 200 nM? Item: c1ccc(COCCCOc2ccc([C@H]3CCNC[C@@H]3OCc3ccc4ccccc4c3)cc2)cc1 (racemic) Satisfied

----------
# System name: Renin (Homo sapiens, UniProt P00797)
# Sequence (P00797 whole entry): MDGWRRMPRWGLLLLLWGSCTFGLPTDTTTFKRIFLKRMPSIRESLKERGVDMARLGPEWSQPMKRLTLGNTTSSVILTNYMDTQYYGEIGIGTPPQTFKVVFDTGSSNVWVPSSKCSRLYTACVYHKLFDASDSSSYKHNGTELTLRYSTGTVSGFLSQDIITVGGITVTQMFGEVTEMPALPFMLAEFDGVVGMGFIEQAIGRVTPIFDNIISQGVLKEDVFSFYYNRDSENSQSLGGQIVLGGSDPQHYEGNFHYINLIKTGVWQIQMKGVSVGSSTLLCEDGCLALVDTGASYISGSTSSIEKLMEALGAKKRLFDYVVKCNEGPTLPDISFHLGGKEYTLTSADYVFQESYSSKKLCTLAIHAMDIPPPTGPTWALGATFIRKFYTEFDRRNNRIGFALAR
# Protocol notes: In vitro inhibitory activity against purified recombinant human renin
Measure name: IC50 (µM)
Answer format: numeric, µM implied, no suffix.

COc1ccc(CO[C@@H]2CNCC[C@H]2c2ccc(Cl)cc2)cc1: 1200

Recorded IC50 (molecule COc1ccc(COC2CNCCC2c2ccc(Cl)cc2)cc1 (racemic) ): 50

Recorded IC50 (molecule c1ccc(COCCCOc2ccc([C@H]3CCNC[C@@H]3OCc3ccc4ccccc4c3)cc2)nc1 (racemic) ): 0.21

Recorded IC50 (molecule COc1ccccc1COCCCOc1ccc([C@H]2CCNC[C@@H]2OCc2ccc3ccccc3c2)cc1 (racemic) ): 0.0015

Recorded IC50 (molecule c1ccc(OCCCCOc2ccc([C@H]3CCNC[C@@H]3OCc3ccc4ccccc4c3)cc2)cc1 (racemic) ): 0.22

Recorded IC50 (molecule c1ccc(OCCCOCc2ccc([C@H]3CCNC[C@@H]3OCc3ccc4ccccc4c3)cc2)cc1 (racemic) ): 0.54

Recorded IC50 (molecule c1ccc(CCOCCOc2ccc([C@H]3CCNC[C@@H]3OCc3ccc4ccccc4c3)cc2)cc1 (racemic) ): 0.16

----------
Listing of recorded pIC50 by entry.
# System name: Renin (Homo sapiens)
# Sequence (P00797 whole entry): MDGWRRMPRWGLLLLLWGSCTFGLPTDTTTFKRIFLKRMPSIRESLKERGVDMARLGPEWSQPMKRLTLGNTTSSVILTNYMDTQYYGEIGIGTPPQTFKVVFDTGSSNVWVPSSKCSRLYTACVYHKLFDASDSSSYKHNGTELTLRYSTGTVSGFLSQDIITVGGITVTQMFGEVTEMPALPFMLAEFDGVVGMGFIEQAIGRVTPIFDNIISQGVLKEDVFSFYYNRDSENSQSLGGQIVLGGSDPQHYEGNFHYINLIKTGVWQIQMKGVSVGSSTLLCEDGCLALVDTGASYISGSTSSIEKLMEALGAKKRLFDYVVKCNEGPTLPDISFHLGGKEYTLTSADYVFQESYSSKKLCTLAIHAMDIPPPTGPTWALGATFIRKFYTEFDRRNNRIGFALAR
# Protocol notes: In vitro inhibitory activity against purified recombinant human renin
Answer as the number alone; pIC50 is minus log10 of concentration in mol/L.

O=S(=O)(NCc1ccc([C@H]2CCNC[C@@H]2OCc2ccc3ccccc3c2)cc1)c1ccccc1 (racemic): 4.40
COc1ccccc1COCCCOc1ccc([C@H]2CCNC[C@@H]2OCc2cc(OC)c3ccccc3c2OC)cc1 (racemic): 10.22
c1ccc(COCCCOCc2ccc([C@H]3CCNC[C@@H]3OCc3ccc4ccccc4c3)cc2)cc1 (racemic): 6.13
c1ccc(COCCOCc2ccc([C@H]3CCNC[C@@H]3OCc3ccc4ccccc4c3)cc2)cc1 (racemic): 7.04
O=C(OCCOc1ccc([C@H]2CCNC[C@@H]2OCc2ccc3ccccc3c2)cc1)c1ccccc1 (racemic): 7.59

Recorded pIC50 (compound c1ccc(COCCOc2ccc([C@H]3CCNC[C@@H]3OCc3ccc4ccccc4c3)cc2)cc1 (racemic) ): 7.28

Recorded pIC50 (compound COc1ccc(CO[C@H]2CNCC[C@@H]2c2ccc(Cl)cc2)cc1 ): 4.59

Recorded pIC50 (compound c1ccc(OCCOCc2ccc([C@H]3CCNC[C@@H]3OCc3ccc4ccccc4c3)cc2)cc1 (racemic) ): 6.80

Recorded pIC50 (compound c1ccc(COCCCCOc2ccc([C@H]3CCNC[C@@H]3OCc3ccc4ccccc4c3)cc2)cc1 (racemic) ): 7.00

Recorded pIC50 (compound CC(C)(C)S(=O)(=O)C[C@@H](Cc1ccccc1)C(=O)N[C@@H](Cc1cnc[nH]1)C(=O)N[C@@H](CC1CCCCC1)[C@@H](O)[C@@H](O)C1CC1 ): 10.60
